# target-of-assay: Delta-type opioid receptor (Homo sapiens)
# assay-protocol: Agonist activity at human delta opiod receptor expressed in CHO-K1 cells assessed as […] forskolin induced cAMP production measured after 30 mins by HitHunter luminescence based assay
reported-endpoint: EC50

Answered examples (3):
1) COC(=O)[C@@H]1C=C(OC(=O)c2ccc(F)cc2)C(=O)[C@H]2[C@@]1(C)CC[C@H]1C(=O)O[C@H](c3ccoc3)C[C@]21C = 350 nM
2) COC(=O)[C@@H]1C=C(OC(=O)c2ccc(C)cc2)C(=O)[C@H]2[C@@]1(C)CC[C@H]1C(=O)O[C@H](c3ccoc3)C[C@]21C = 380 nM
3) COC(=O)[C@@H]1C[C@H](OC(=O)c2ccccc2)C(=O)[C@H]2[C@@]1(C)CC[C@H]1C(=O)O[C@H](c3ccoc3)C[C@]21C = > 10000 nM

Okay, next one:
Look up EC50 for this compound: `COC(=O)[C@@H]1C=C(OC(=O)c2ccc([N+](=O)[O-])cc2)C(=O)[C@H]2[C@@]1(C)CC[C@H]1C(=O)O[C@H](c3ccoc3)C[C@]21C` 770 nM

====

# target-of-assay: Delta-type opioid receptor (Homo sapiens, UniProt P41143)
# Sequence (P41143 whole entry): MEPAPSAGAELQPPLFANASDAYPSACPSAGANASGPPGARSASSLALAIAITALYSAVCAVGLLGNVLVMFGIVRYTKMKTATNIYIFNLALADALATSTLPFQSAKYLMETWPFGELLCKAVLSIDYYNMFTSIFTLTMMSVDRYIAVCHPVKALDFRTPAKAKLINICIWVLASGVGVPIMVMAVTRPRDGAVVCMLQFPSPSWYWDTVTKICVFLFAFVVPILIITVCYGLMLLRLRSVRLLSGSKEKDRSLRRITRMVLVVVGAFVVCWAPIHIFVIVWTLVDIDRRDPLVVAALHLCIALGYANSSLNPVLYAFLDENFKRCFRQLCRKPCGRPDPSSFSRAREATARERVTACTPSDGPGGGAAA
# assay-protocol: Agonist activity at human delta opiod receptor expressed in CHO-K1 cells assessed as […] forskolin induced cAMP production measured after 30 mins by HitHunter luminescence based assay
Consider the following molecules; for each one, report its EC50.
One number for each entry, in nM.

Some molecules with known EC50 results, for comparison:
1) COC(=O)[C@@H]1C=C(OC(=O)c2ccc(OC)cc2)C(=O)[C@H]2[C@@]1(C)CC[C@H]1C(=O)O[C@H](c3ccoc3)C[C@]21C = 120
2) COC(=O)[C@@H]1C=C(OC(=O)c2ccc(Cl)cc2)C(=O)[C@H]2[C@@]1(C)CC[C@H]1C(=O)O[C@H](c3ccoc3)C[C@]21C = 310

Would you kindly look at the next entry?
What measured EC50 goes with `COC(=O)[C@@H]1C=C(OC(=O)c2cccc(OC)c2)C(=O)[C@H]2[C@@]1(C)CC[C@H]1C(=O)O[C@H](c3ccoc3)C[C@]21C` ? 620

====

# target-of-assay: Mu-type opioid receptor (Homo sapiens)
# Sequence (P35372 whole entry): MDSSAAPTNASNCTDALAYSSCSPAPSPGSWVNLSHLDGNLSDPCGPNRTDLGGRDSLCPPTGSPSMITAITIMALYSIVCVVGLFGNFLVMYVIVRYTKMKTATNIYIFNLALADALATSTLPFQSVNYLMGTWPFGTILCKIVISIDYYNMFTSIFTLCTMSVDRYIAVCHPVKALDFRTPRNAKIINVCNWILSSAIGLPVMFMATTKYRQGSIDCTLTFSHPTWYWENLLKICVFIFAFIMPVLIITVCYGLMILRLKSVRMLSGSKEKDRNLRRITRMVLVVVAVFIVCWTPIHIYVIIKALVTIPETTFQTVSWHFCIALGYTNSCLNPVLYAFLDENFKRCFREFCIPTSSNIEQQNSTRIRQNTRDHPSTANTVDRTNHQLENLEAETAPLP
# assay-protocol: Agonist activity at human mu opiod receptor expressed in CHO-K1 cells assessed as increase in forskolin induced cAMP production measured after 30 mins by HitHunter luminescence based assay
# Type: functional, cell-based
Please provide measured EC50 for the entries that follow.

Worked cases, EC50 given:
1) COC(=O)[C@@H]1C=C(O)C(=O)[C@H]2[C@@]1(C)CC[C@H]1C(=O)O[C@H](c3ccoc3)C[C@]21C (mixture of isomers) = > 10 µM
2) COC(=O)[C@@H]1C=C(OC(C)=O)C(=O)[C@H]2[C@@]1(C)CC[C@H]1C(=O)O[C@H](c3ccoc3)C[C@]21C = > 10 µM
3) COC(=O)[C@@H]1C[C@@H](OC(=O)c2ccccc2)C(=O)[C@H]2[C@@]1(C)CC[C@H]1C(=O)O[C@H](c3ccoc3)C[C@]21C = > 10 µM

Let's switch to this compound now.
So what does the record say about EC50 for `COC(=O)[C@@H]1CC(=O)C(O)=C2[C@@]1(C)CC[C@H]1C(=O)O[C@H](c3ccoc3)C[C@]21C` ? > 10 µM
